Origin of values: patent US20250188153A1

Target: hMPV F protein of hMPV CAN/97-83 (genotype A) (human metapneumovirus, UniProt Q6WB98 19-539)
Sequence (Q6WB98 19-539): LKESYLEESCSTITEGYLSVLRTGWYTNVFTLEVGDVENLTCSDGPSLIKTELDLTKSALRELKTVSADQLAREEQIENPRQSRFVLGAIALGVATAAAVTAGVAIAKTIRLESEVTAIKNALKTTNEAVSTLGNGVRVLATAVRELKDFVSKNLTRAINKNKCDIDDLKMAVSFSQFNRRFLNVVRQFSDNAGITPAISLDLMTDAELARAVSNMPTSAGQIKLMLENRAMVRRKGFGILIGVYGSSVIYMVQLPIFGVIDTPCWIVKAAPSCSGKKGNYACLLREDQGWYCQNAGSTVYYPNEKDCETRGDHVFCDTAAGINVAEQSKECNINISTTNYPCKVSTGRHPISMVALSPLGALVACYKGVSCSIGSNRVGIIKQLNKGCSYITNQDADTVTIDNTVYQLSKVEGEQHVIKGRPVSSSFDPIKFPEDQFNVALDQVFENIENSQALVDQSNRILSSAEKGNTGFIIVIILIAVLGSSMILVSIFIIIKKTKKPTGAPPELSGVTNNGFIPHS
Assay: cell-based or functional assay
Please respond with reported IC50, plaque-reduction neutralization of hMPV CAN/97-83 for every item in the list.
One number for each entry, in µg/mL.

Example entries and their recorded answers appear below.
MPV456 (antibody, V domains shown) VH: QVQLQESGPGVVKPSGTLSLTCGVSGGSISSSYWWSWVRQPPGKGLEWIGEIYHSGSTNYNPSLKRRVTISVDKSKNQFSLKVTSVTAADTAVYYCARGPIQYYDILTEERVGYCDYWGQGTLVTVSS VL: TLSASVGDRVTITCRASQSISSWLAWFQQKPGKAPKLLIYKTSSLESGVPSRFSGSGSGTEFTLTISSLQPDDFATYYCQEYNSYSRTFGQGTKVEIK    0.45
MPV477 (antibody, V domains shown) VH: EVQLVQSGAEVKKPGASVEVSCKTSGYTFTDYYLHWVRQAPGQGLEWMGWINPRSGGTKYGQKFQGRVTMTRDTSISTAYMDLRGLRSDDTAVYYCARAPLLTVYAVAHRSGENRFDPWGQGTVTVSS VL: QPPSLSGAPGQTVTISCTGSGSNIGAGYDVNWYQCLPGTAPKLLMFDNSNRPSGVPDRFSGSRSGASASLAITGLQAEDEADYYCQSYDSGLSGWVFGGGTKLTVL    0.054

Now for the binder whose IC50, plaque-reduction neutralization of hMPV CAN/97-83 we want.
input: Item MPV485 (antibody, V domains shown) V domain 1: EVQLQEPGPGLVKPSETLSLTCTVSGGSISSTNSFWGWVRQPPGKGLEWIGSIYYSGTTYYNSSLKSRVTISVDTSKNQFSLRLSSVTAADTAVYYCARQGLTSSWYDGSGLDVWG V domain 2: SYELTQPPSVSVSPGQTASITCSGDKLGNKYACWYQQRPGQSPVLVIYQDTKRPSGIPERFSGSNSGNTATLTISGTQAMDEADYYCQAWDSNTVVFGGGTKLTVL has what recorded IC50, plaque-reduction neutralization of hMPV CAN/97-83?
output: 0.091
